Read-out: Insulin-like growth factor-binding protein 1 (IGFBP1), IGFBP1 (gene 3484)
TEST: LTEA_HepaRG_IGFBP1: Life Technologies and Expression Analysis (LTEA) Assay for Insulin-like growth factor-binding protein 1 (IGFBP1) using HepaRG (AID 2283508)
TEST_PARAMETERS: mRNA level, 48 h; actives raise or lower the signal
Active and inactive are the calls of the source. How the source made its calls: active means hit-call score of the fitted dose curve at least 0.9, where 1 is the maximum; inactive means score below 0.9.
The reply should name one outcome from active, inactive

# count of solved cases: 2
| MOLECULE | CLASS |
| --- | --- |
| O=Cc1ccco1 | inactive |
| CC(C)(C)C(O)(CCc1ccc(Cl)cc1)Cn1cncn1 (stereo not drawn) | active |

Could you now look at the following molecule, please?
Called result for O=C(O)C1C2CCC(O2)C1C(=O)O (stereo not drawn)
active
